- Tested on: OVCAR-4 ovarian
- measurement notes: NCI-60 one-dose screen, 48 h
- experimental context: 10 µM unless noted
- Method: Growth inhibition of the OVCAR-4 human tumor cell line is measured as a screen for anti-cancer activity. Cells are grown in 96 well plates and exposed to the test compound for 48 hours. Compounds are tested at a single concentration, which is 10^-5 M for most compounds. The reported endpoint is percent growth (GI% or GIPRCNT), where numbers from 0 - 100% represent growth inhibition, and numbers from -100% - 0 represent cell death. For example, a value of 40 represents 60% growth inhibition. […]
This is part of a sample that, as a whole, favours compounds with a hit. Of some 83,000 tested, about 20% had one in any assay. Activity calls are given as the source filed them. How the source made its calls: active means growth percent below 10; inactive means the rest.
Please reply with one of these outcomes: active, inactive

Recorded test outcome, item `ClC(Cl)c1nc(-c2ccco2)n2nc(-c3ccccc3)cc2n1`
inactive

Recorded test outcome, item `CCN(CC)c1cn(-c2ccc(S(N)(=O)=O)cc2)nn1`
inactive

Recorded test outcome, item `CN(C)CCN(C)c1ccc2ncc(C#Cc3cncc(C(=O)Nc4ccc(CN5CCN(C)CC5)c(C(F)(F)F)c4)c3)n2n1`
active

Recorded test outcome, item `CC1(C)CC[C@]2(CN)CC[C@]3(C)C(=CC[C@@H]4[C@@]5(C)CCCNC(C)(C)[C@@H]5CC[C@]43C)[C@H]2C1`
inactive

Recorded test outcome, item `c1cc(-c2nc3ccc4[nH]ncc4c3c3c2CCCC3)[nH]n1`
inactive

Recorded test outcome, item `NC(N)=Nc1ccc(Oc2cccc(Nc3ccc(Cl)c(C(F)(F)F)c3)c2)cn1`
active

Recorded test outcome, item `O=C(O)c1ccc(-n2cc(CNc3cc(F)c(F)c(F)c3)c(-c3ccc(F)cc3)n2)cc1`
inactive

Recorded test outcome, item `O=S(=O)(NCCNc1nccc(-n2cnc3ccccc32)n1)c1ccc(Cl)cc1`
inactive

Recorded test outcome, item `O=C(Nc1ccc2c(ccn2Cc2ccccn2)c1)c1cnccn1`
inactive

Recorded test outcome, item `CC(=O)c1cc(C(=O)c2ccc(Br)cc2)n2cc(C)cc(C)c12`
inactive

Recorded test outcome, item `COc1ccc(/C=C/C(=O)c2cc(S(N)(=O)=O)c(OC)cc2OC)cc1`
inactive

Recorded test outcome, item `COc1ccc(COc2ccc(/C=C3\C(=O)Nc4ccccc43)cc2OC)cc1`
inactive

Recorded test outcome, item `c1n[nH]cc1-c1nc2ccc3[nH]ncc3c2c2c1CCCC2`
inactive

Recorded test outcome, item `Cc1noc(C)c1CSc1nc2ccccc2n1-c1ccccc1`
inactive

Recorded test outcome, item COc1cc2c(cc1OC)C(Sc1ccc(C)cc1)c1c(nc(N)c(C#N)c1N)O2 (stereo not drawn)
active

Recorded test outcome, item `N#Cc1c(-c2cccs2)cc(-c2cnccn2)nc1SCC(=O)c1ccc(F)cc1`
inactive

Recorded test outcome, item `O=C(NNc1nc2cc(F)ccc2n2c(CO)ccc12)c1cnccn1`
inactive

Recorded test outcome, item `Cn1ccnc1C(=O)/C=C/c1ccc(NC(=O)c2ccc(F)cc2)cc1`
inactive

Recorded test outcome, item `Nc1ccccc1NC(=O)c1ccc(NC(=O)C/C=C/c2cccnc2)cn1`
inactive

Recorded test outcome, item `NC(N)=Nc1ccc(Oc2cccc(Nc3cccc(C(F)(F)F)c3)c2)cn1`
inactive

Recorded test outcome, item `C=CC(=O)N1CC=C(c2cc3c(N[C@H](C)c4ccccc4)ncnc3[nH]2)CC1`
inactive

Recorded test outcome, item `Cc1cccc(/C=C/C(=O)Nc2ncc(Cc3cccc(C)c3)s2)c1`
inactive

Recorded test outcome, item `CCN(CC)c1ccc(NC2=C(Cl)C(=O)c3nc(C)ccc3C2=O)cc1`
active

Recorded test outcome, item `Cc1occc1-c1nc2s/c(=C/c3ccc(-c4cc(C(F)(F)F)ccc4Cl)o3)c(=O)n2n1`
inactive

Recorded test outcome, item `CC(C)(C)c1ccc(CC(=O)Nc2sc3c(c2C(N)=O)CCC(=O)C3)cc1`
active

Recorded test outcome, item `C=CCn1c(SCC(=O)Nc2ccc(C(=O)/C=C/c3ccc(C)cc3)cc2)nnc1-c1c[nH]c2ccccc12`
inactive

Recorded test outcome, item `CCn1c(SCC(=O)Nc2cccc(C(=O)/C=C/c3ccc(C)cc3)c2)nc2ccccc2c1=O`
inactive

Recorded test outcome, item C[C@@H]1C[C@H]2C(=O)O[C@@H](C)C(NC(=O)[C@H](Cc3cc(F)cc(F)c3)NC(=O)Nc3ccc(C4CC4)cc3F)C(=O)N3CCC[C@H]3C(=O)N3CCCC[C@H]3C(=O)N[C@@H](CO)C(=O)N2C1 (stereo partly drawn)
inactive

Recorded test outcome, item `CN1CCN(Cc2ccc(NC(=O)c3cncc(C#Cc4cnc5ccc(OCC(C)(C)O)nn45)c3)cc2C(F)(F)F)CC1`
active

Recorded test outcome, item COC(=O)c1[nH]nc2c1C1(C(=O)N(C)c3ccccc31)C(C#N)=C(N)O2 (stereo not drawn)
inactive

Recorded test outcome, item `N#Cc1c(NC(=O)c2cccc(C(F)(F)F)c2F)sc2c1CCC(=O)C2`
active

Recorded test outcome, item `Cc1ccc(S(=O)(=O)N(CC[C@@H]2C[C@H]2c2cc3ccccc3o2)S(=O)(=O)c2ccc(C)cc2)cc1`
inactive

Recorded test outcome, item `N/C(=N\C(N)=N\c1nc2ccccc2s1)c1cccc(F)c1`
inactive

Recorded test outcome, item `O=C(NNc1nc2cc(F)c(F)cc2n2cccc12)c1cnccn1`
inactive

Recorded test outcome, item `O=c1c2ccccc2nc(COc2ccccc2)n1NS(=O)(=O)c1ccc(Cl)cc1`
inactive

Recorded test outcome, item COC(=O)C1(C)CCC[C@]2(C)[C@H]3C[C@H]4C(C(C)C)=C[C@]3(CC[C@@H]12)[C@H]1[C@@H]4[C@@H](OC(=O)c2ccco2)CC[C@@H]1OC(=O)c1ccco1 (stereo partly drawn)
inactive

Recorded test outcome, item `COc1ccc(C(=O)c2c(N)c(C#N)cn2-c2ccccc2OC)cc1`
inactive

Recorded test outcome, item `COc1ccc(NC(=O)Nc2ccc3c(ccn3C(=O)c3cccc(F)c3)c2)cc1`
inactive

---

- Tested on: MDA-MB-231 breast
- measurement notes: NCI-60 one-dose screen, 48 h (100 = growth as untreated, 0 = no growth, -100 = all killed)
- experimental context: 10 µM unless noted
This is part of a sample that, as a whole, favours compounds with a hit. Of some 83,000 tested, about 20% had one in any assay.
readout name: growth (%)
All answers are understood in %, so give the number only.

API: value(readout=growth, system=MDA-MB-231 breast) for record `COc1ccc(Cn2cc3c(c2-c2cc(OC)c(OC)c(OC)c2)CCc2c(CN4CCOCC4)noc2-3)cc1`
31.8

API: value(readout=growth, system=MDA-MB-231 breast) for record `COc1ccc(NC(=O)CSc2nnc(-c3ccc4nc(-c5ccccc5)[nH]c4c3)o2)cc1`
97.1

API: value(readout=growth, system=MDA-MB-231 breast) for record `COc1ccc(S(=O)(=O)NCCCNc2nccc(-c3[nH]c(-c4ccccc4)nc3-c3ccc(Cl)c(O)c3)n2)cc1`
61.4

API: value(readout=growth, system=MDA-MB-231 breast) for record `Nc1nc(Nc2ccccc2SSc2ccccc2Nc2nc(N)nc(-c3ccc4ccccc4c3)n2)nc(-c2ccc3ccccc3c2)n1`
60.9

---

- Test system: SR leukemia
- measurement notes: NCI-60 one-dose screen, 48 h (100 = growth as untreated, 0 = no growth, -100 = all killed)
- experimental context: 10 µM unless noted
Compounds without any hit were thinned out: in the full panel of roughly 83,000, 20% have a hit. Active and inactive are the calls of the source. How the source made its calls: active means growth percent below 10; inactive means the rest.
readout name: growth

API: value(readout=growth, system=SR leukemia) for record O=C(c1ccc(Cl)cc1)C1[C@H](c2ccc(Cl)cc2)[C@@H](c2ccccc2)NC12C(=O)Nc1ccccc12 (some centres not stated)
3.54% (active)

API: value(readout=growth, system=SR leukemia) for record `COc1cccc(/C=C(/C)c2ccc3cccc(OC)c3[o+]2)c1O`
92.1% (inactive)

API: value(readout=growth, system=SR leukemia) for record CCc1cccc2c3c(sc12)C(c1ccc(Cl)cc1)C(C#N)=C(/N=C/c1ccc(Cl)cc1)O3 (configuration not stated)
13.9% (inactive)

API: value(readout=growth, system=SR leukemia) for record `NS(=O)(=O)c1ccc(-n2cc(CN3CCNCC3)nn2)cc1`
100% (inactive)

API: value(readout=growth, system=SR leukemia) for record `COc1cc(-c2nc(SC(C)C)n(C(C)C)c(=O)c2C#N)ccc1OCc1ccccc1`
39.9% (inactive)

API: value(readout=growth, system=SR leukemia) for record `Cn1cc(-c2cc(N)n3nc(-c4cn(C)c5ccccc45)cc3n2)c2ccccc21`
-9.33% (active)

API: value(readout=growth, system=SR leukemia) for record `COc1ccc(-c2cc(-c3ccc(Cl)cc3)c(C#N)c(=O)n2Cc2ccc(C(=O)O)cc2)cc1`
28.9% (inactive)

API: value(readout=growth, system=SR leukemia) for record `COc1ccc2c(c1)c(CC(=O)[Se]CC(=O)O)c(C)n2C(=O)c1ccc(Cl)cc1`
101% (inactive)

API: value(readout=growth, system=SR leukemia) for record `O=C(NNc1nc2cc(F)ccc2n2c(CN3CCCC3)ccc12)c1cnccn1`
4.32% (active)

API: value(readout=growth, system=SR leukemia) for record `CC1=N[C@@H]2CN(C(=O)OC(C)(C)C)C[C@@H]2n2c1cc1ccccc1c2=O`
99.9% (inactive)

API: value(readout=growth, system=SR leukemia) for record `CS(=O)(=O)Nc1cc(-c2ccc3ncc(C#N)c(N[C@H](CO)c4ccccc4)c3c2)cnc1Cl`
20.7% (inactive)

API: value(readout=growth, system=SR leukemia) for record COc1ccc2c(c1)Oc1nc(N)c(C#N)c(N)c1C2Sc1ccc(C)cc1 (configuration not stated)
0.429% (active)

API: value(readout=growth, system=SR leukemia) for record `O=C1[C@H]2Cc3c([nH]c4ccccc34)[C@@H](c3ccc(Cl)cc3)N2C(=O)CN1C1CCN(Cc2ccccc2)CC1`
10.4% (inactive)

API: value(readout=growth, system=SR leukemia) for record `CC(=O)O[C@@H]1C(=O)N(c2cnccn2)[C@H]1c1ccccc1[N+](=O)[O-]`
11.5% (inactive)

API: value(readout=growth, system=SR leukemia) for record `CCn1c2ccccc2c2cc(-n3nncc3-c3ccccc3)ccc21`
10.4% (inactive)

API: value(readout=growth, system=SR leukemia) for record `Cc1ccc(-n2cc(/C=N/NC(=O)c3ccncc3)c(-c3ccc(S(C)(=O)=O)cc3)n2)cc1`
63.5% (inactive)

API: value(readout=growth, system=SR leukemia) for record `CC(=O)Nc1cccc(Nc2nc(N[C@@H](C)c3ccccc3)c3ccccc3n2)c1`
-43.4% (active)

API: value(readout=growth, system=SR leukemia) for record `COc1ccc(/C=C(\C#N)C(=O)N2c3ccccc3Sc3ccc(SC)cc32)cc1F`
121% (inactive)

API: value(readout=growth, system=SR leukemia) for record `Cc1nn(-c2ccccc2)c2ncnc(N/N=C/c3ccccc3)c12`
98.1% (inactive)

API: value(readout=growth, system=SR leukemia) for record COC(=O)/C=C/c1c(C2(C)NC(=O)c3ccccc3N2)c(=O)oc2ccc(Cl)cc12 (configuration not stated)
108% (inactive)

API: value(readout=growth, system=SR leukemia) for record CCCn1cnc2c(c1=N)C(c1ccc(F)cc1)c1sc3c(CC)cccc3c1O2 (configuration not stated)
1.23% (active)

API: value(readout=growth, system=SR leukemia) for record `O=C(Nc1nonc1-c1ccccc1)c1ccc(C(F)(F)F)cc1`
85.6% (inactive)

API: value(readout=growth, system=SR leukemia) for record `O=C(CCn1c[n+](CC(=O)c2ccc(F)cc2)c2ccccc21)Nc1cccc2cccnc12`
79.5% (inactive)

API: value(readout=growth, system=SR leukemia) for record `O=C(CSc1nc2ccccc2c(=O)n1-c1ccc(Cl)cc1)N/N=C/c1ccc(N2CCCCC2)cc1`
74.8% (inactive)

API: value(readout=growth, system=SR leukemia) for record `Cc1c(F)cc(C(N)=O)cc1NCC(=O)Nc1ccc([N+](=O)[O-])cc1`
107% (inactive)

API: value(readout=growth, system=SR leukemia) for record `Nc1ccccc1NC(=O)c1ccc(NC(=O)C/C=C/c2cccnc2)cn1`
28.2% (inactive)

API: value(readout=growth, system=SR leukemia) for record `CC1(C)[C@@H](O)CC[C@]2(C)[C@H]3CC[C@@H]4[C@H]5[C@H](C(=O)/C=C\c6ccncc6)CC[C@]5(O)CC[C@@]4(C)[C@]3(C)CC[C@@H]12`
4.32% (active)

API: value(readout=growth, system=SR leukemia) for record `Cc1ccc(NC(=O)c2ccc(CN3CCN(C)CC3)cc2)cc1Oc1ccc(-c2[nH]nc3ncnc(N)c23)cc1`
80.2% (inactive)

API: value(readout=growth, system=SR leukemia) for record `COc1ccc([C@H]2c3[nH]c4ccccc4c3C[C@H]3C(=O)N(C4CCN(Cc5c(Cl)cccc5Cl)CC4)CC(=O)N23)c(OC)c1`
85% (inactive)

API: value(readout=growth, system=SR leukemia) for record `COc1cc(-c2ccc3ncnc(NCc4ccccc4)c3c2)cnc1OC`
62.1% (inactive)

API: value(readout=growth, system=SR leukemia) for record `C#Cc1ccc(C(=O)NCc2ccc(/C=C/C(=O)c3nccn3C)cc2)cc1`
4.33% (active)

API: value(readout=growth, system=SR leukemia) for record `CS(=O)(=O)Nc1cc(-c2ccc3ncc(C#N)c(Nc4cccc(Cl)c4F)c3c2)cnc1Cl`
1.4% (active)

API: value(readout=growth, system=SR leukemia) for record `COc1ccc(-n2c(SCc3nnc(NC(=O)c4ccc(Br)cc4)s3)nc3cc(OC)c(OC)cc3c2=O)cc1`
101% (inactive)

API: value(readout=growth, system=SR leukemia) for record COc1c(N2CC3CCCNC3C2)c(F)cc2c(=O)c(C(=O)N/N=C/c3ccccc3)cn(C3CC3)c12 (configuration not stated)
8.2% (active)

API: value(readout=growth, system=SR leukemia) for record `CC(C)(C)c1ccc(C(=O)Nc2sc3c(c2C(N)=O)CC/C(=N\O)C3)cc1`
6.35% (active)

API: value(readout=growth, system=SR leukemia) for record `COc1ccc(NC(=O)CSc2nnc(-c3ccc4nc(-c5ccccc5)[nH]c4c3)o2)cc1`
91.2% (inactive)

API: value(readout=growth, system=SR leukemia) for record `CN1CCN(c2ccc(/C=N/Nc3nc4ccccc4c(=O)n3-c3ccccc3)cc2)CC1`
93.4% (inactive)
